Molecular target: T1, soluble KIR3DL1*002-Fc (human, UniProt P43629 22-338)
T1 construct: also called KIR3DL1 allele 002; Allele 002; not shown: Fc domain
T1 sequence (P43629 other isoform, or with tags, fused parts or gaps): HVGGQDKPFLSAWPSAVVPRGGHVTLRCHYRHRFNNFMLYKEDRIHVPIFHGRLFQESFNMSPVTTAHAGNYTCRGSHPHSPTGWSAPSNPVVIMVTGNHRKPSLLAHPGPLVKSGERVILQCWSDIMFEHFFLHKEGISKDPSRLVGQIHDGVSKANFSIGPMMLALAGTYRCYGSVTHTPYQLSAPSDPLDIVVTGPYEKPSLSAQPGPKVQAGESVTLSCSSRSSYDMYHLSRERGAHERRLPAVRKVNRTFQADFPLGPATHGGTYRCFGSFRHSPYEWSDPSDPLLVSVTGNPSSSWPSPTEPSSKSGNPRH
Assay: SPR (BIACORE T-100), kinetics
Metric Name: koff

Binder	Metric Name	Measured Result
ET160-74 (antibody, human IgG1, V domains shown, Tested as human IgG1 (hIgG1), lambda light chain) VH: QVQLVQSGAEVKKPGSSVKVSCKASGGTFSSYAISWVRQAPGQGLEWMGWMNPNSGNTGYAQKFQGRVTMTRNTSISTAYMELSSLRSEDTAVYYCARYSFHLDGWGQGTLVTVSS VL: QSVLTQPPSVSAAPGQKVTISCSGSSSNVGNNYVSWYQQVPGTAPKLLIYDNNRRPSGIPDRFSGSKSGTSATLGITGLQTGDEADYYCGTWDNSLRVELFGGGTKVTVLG	koff	0.0112 s⁻¹
ET160-61 (antibody, human IgG1, V domains shown, Tested as human IgG1 (hIgG1), lambda light chain) VH: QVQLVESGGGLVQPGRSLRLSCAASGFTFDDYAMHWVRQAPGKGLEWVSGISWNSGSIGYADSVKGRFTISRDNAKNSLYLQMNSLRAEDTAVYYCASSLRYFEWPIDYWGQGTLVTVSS VL: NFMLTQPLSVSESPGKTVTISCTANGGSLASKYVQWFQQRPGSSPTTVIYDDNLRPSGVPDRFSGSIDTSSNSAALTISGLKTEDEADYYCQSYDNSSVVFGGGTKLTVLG	koff	0.00232 s⁻¹
ET160-77 (antibody, human IgG1, V domains shown, Tested as human IgG1 (hIgG1), lambda light chain) VH: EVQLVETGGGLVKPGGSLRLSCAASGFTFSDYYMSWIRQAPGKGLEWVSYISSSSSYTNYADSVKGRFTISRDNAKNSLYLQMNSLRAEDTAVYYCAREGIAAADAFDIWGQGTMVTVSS VL: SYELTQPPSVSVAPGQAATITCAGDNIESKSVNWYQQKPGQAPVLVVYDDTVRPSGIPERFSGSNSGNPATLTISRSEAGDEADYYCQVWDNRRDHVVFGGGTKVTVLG	koff	0.00987 s⁻¹
ET160-72 (antibody, human IgG1, V domains shown, Tested as human IgG1 (hIgG1), lambda light chain) VH: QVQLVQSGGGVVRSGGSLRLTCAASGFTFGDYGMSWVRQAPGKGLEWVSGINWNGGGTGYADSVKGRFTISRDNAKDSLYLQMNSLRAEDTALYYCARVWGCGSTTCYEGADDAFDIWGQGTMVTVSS VL: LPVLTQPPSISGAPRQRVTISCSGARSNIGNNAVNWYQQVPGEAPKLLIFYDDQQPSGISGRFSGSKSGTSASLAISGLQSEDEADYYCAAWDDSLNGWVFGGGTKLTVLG	koff	0.0159 s⁻¹
ET160-73 (antibody, human IgG1, V domains shown, Tested as human IgG1 (hIgG1), kappa light chain) VH: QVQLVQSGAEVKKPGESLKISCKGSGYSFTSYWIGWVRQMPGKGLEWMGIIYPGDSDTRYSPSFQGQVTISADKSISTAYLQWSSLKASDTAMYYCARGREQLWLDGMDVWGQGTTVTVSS VL: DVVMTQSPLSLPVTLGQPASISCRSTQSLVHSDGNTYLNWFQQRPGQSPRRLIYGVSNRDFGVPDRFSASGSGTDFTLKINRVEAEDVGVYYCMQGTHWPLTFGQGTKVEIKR	koff	0.00481 s⁻¹
